Data provenance is patent US8853230B2.

Study target: JAK1 (Homo sapiens, UniProt P23458)
Construct: 5 μl of catalytic domain recombinant Kinase enzyme+Tyr peptide substrate (Invitrogen, Calif.)
Sequence (P23458 875-1153 limits assumed): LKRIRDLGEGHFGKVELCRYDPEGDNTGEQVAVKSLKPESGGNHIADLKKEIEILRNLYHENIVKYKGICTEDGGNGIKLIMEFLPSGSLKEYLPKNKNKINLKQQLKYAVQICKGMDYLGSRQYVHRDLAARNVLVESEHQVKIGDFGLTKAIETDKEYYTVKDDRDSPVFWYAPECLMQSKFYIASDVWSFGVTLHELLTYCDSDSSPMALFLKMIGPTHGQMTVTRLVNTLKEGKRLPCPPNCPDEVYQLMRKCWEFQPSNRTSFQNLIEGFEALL
Measurement notes: Z'-LYTE kinase assay, JAK1 tyrosine phosphorylation activity
Experimental setup: read-out: JAK 1 IC50
Consider the following compounds and their measured IC50 readings.

The cases that follow already have their IC50 on record.
>>> value_reported("CC(C)OC(=O)Nc1cccc(Nc2ncc(C(N)=O)c(NCc3ccccc3)n2)c1")
"> 1 µM"
>>> value_reported("COC(=O)Nc1cc(Nc2ncc(C(N)=O)c(NC3CCCC3)n2)ccc1Cl")
"0.01 to 0.1 µM"
>>> value_reported("CCCCNc1nc(Nc2cccc(NC(=O)N3CCCC3)c2)ncc1C(N)=O")
"0.01 to 0.1 µM"
>>> value_reported("C[C@@H](Nc1nc(Nc2ccc(Cl)c(NC(=O)C3CC3)c2)ncc1C(N)=O)c1ccccc1")
"0.1 to 1 µM"

Kindly consider the entry below.
Query: Request the reported IC50 associated with C[C@@H](Nc1nc(Nc2cccc(NC(=O)N3CCCC3)c2)ncc1C(N)=O)c1ccccc1
Result: 0.1 to 1 µM

====

Study target: JAK3 (Homo sapiens, UniProt P52333)
Construct: 5 μl of catalytic domain recombinant Kinase enzyme+Tyr peptide substrate (Invitrogen, Calif.); purchased Invitrogen
Sequence (P52333 822-1111 limits assumed): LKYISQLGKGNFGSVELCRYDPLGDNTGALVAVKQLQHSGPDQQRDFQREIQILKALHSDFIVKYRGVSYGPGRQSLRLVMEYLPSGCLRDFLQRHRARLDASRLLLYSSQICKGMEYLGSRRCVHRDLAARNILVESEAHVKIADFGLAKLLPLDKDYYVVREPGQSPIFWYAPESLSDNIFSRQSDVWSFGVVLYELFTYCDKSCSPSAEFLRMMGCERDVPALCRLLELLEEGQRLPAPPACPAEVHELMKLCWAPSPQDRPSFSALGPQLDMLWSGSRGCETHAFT
Measurement notes: Z'-LYTE kinase assay, JAK3 tyrosine phosphorylation activity
Assay type: biochemical
Quantity name: IC50

Query: Request the reported IC50 associated with NC(=O)c1cnc(Nc2cccc(NC(=O)N3CCCC3)c2)nc1NCC1CC1 [Example 123]
Result: 1 to 10 nM

Query: How about this compound: CNC(=O)Nc1cc(Nc2ncc(C(N)=O)c(NCc3ccccc3)n2)ccc1C [Example 157]
Result: 1 to 10 nM

Query: How about this compound: NC(=O)c1cnc(Nc2cccc(NC(=O)N3CCOCC3)c2)cc1NCc1cccc(F)c1 [Example 308]
Result: 1 to 10 nM

Query: How about this compound: COC[C@@H]1CCCN1C(=O)Nc1cccc(Nc2ncc(C(N)=O)c(N[C@H](C)c3ccccc3)n2)c1 [Example 138]
Result: 1 to 10 nM

Query: How about this compound: CC(=O)Nc1cccc(Nc2ncc(C(N)=O)c(Nc3cccc4c3ccn4C)n2)c1 [Example 184]
Result: 1 to 10 nM

Query: How about this compound: CN1CCN(C(=O)Nc2cccc(Nc3ncc(C(N)=O)c(NCc4cccc(F)c4)n3)c2)CC1 [Example 258]
Result: < 1 nM

Query: How about this compound: CC(=O)Nc1cccc(Nc2ncc(C(N)=O)c(NCCC(C)C)n2)c1 [Example 251]
Result: 1 to 10 nM

Query: How about this compound: CC(=O)Nc1cccc(Nc2cc(NCc3ccccc3F)c(C(N)=O)cn2)c1 [Example 340]
Result: 10 to 100 nM

Query: How about this compound: CC(C)CCNc1cc(Nc2cccc(NC(=O)N3CCCC3)c2)ncc1C(N)=O [Example 328]
Result: 10 to 100 nM

Query: How about this compound: CC(=O)Nc1cccc(Nc2ncc(C(N)=O)c(NCc3ccc4c(c3)OCO4)n2)c1 [Example 99]
Result: 10 to 100 nM

Query: How about this compound: CC(=O)Nc1cccc(Nc2ncc(C(N)=O)c(NCC3CCCN(C(=O)OCc4ccccc4)C3)n2)c1 (stereo not drawn) [Example 115]
Result: 10 to 100 nM

Query: How about this compound: CC(=O)Nc1cccc(Nc2ncc(C(N)=O)c(Nc3ccc(NC(=O)CC(F)(F)F)cc3)n2)c1 [Example 303]
Result: 10 to 100 nM

Query: How about this compound: COC(=O)Nc1cc(Nc2ncc(C(N)=O)c(N[C@H](C)c3ccccc3)n2)ccc1Cl [Example 129]
Result: 10 to 100 nM

Query: How about this compound: CC(=O)Nc1cccc(Nc2ncc(C(N)=O)c(NC[C@@H](O)c3ccccc3)n2)c1 [Example 48]
Result: 1 to 10 nM

Query: How about this compound: COCC(=O)Nc1cccc(Nc2ncc(C(N)=O)c(NC3CCC3)n2)c1 [Example 55]
Result: 1 to 10 nM

Query: How about this compound: NC(=O)c1cnc(Nc2cccc(NC(=O)c3cccc(O)n3)c2)nc1NCc1ccccc1F [Example 298]
Result: 1 to 10 nM

Query: How about this compound: CC(=O)Nc1cccc(Nc2cc(NCC3CC3)c(C(N)=O)cn2)c1 [Example 329]
Result: 100 to 1000 nM

Query: How about this compound: NC(=O)c1cnc(Nc2cccc(NC(=O)C3CC3)c2)nc1NC1CCCC1 [Example 19]
Result: 1 to 10 nM

====

Study target: JAK1 (Homo sapiens, UniProt P23458)
Construct: 5 μl of catalytic domain recombinant Kinase enzyme+Tyr peptide substrate (Invitrogen, Calif.)
Measurement notes: Z'-LYTE kinase assay, JAK1 tyrosine phosphorylation activity
Experimental setup: read-out: JAK 1 IC50
Quantity name: IC50

The cases that follow already have their IC50 on record.
>>> value_reported("CC(=O)Nc1cc(Cl)cc(Nc2ncc(C(N)=O)c(NCc3ccccc3)n2)c1")
"> 1 µM"
>>> value_reported("CC(=O)N(c1cccc(Nc2ncc(C(N)=O)c(N[C@H](C)c3ccccc3)n2)c1)C1CC1")
"0.1 to 1 µM"

Query: Request the reported IC50 associated with CC(=O)Nc1cc(Nc2ncc(C(N)=O)c(NCc3ccccc3)n2)ccc1F
Result: 0.01 to 0.1 µM

====

Study target: JAK1 (Homo sapiens, UniProt P23458)
Construct: 5 μl of catalytic domain recombinant Kinase enzyme+Tyr peptide substrate (Invitrogen, Calif.)
Measurement notes: Z'-LYTE kinase assay, JAK1 tyrosine phosphorylation activity
Experimental setup: read-out: JAK 1 IC50
Quantity name: IC50

Query: Request the reported IC50 associated with C[C@@H](Nc1nc(Nc2cccc(NC(=O)N3CCC(O)CC3)c2)ncc1C(N)=O)c1ccccc1
Result: 10 to 100 nM

Query: How about this compound: C[C@@H]1CCCN1C(=O)Nc1cccc(Nc2ncc(C(N)=O)c(N[C@H](C)c3ccccc3)n2)c1
Result: 100 to 1000 nM

Query: How about this compound: CC(=O)Nc1cc(Nc2ncc(C(N)=O)c(Nc3cccc4c3cnn4C)n2)ccc1OCCN1CCCC1
Result: 10 to 100 nM

Query: How about this compound: CC(=O)Nc1cccc(Nc2ncc(C(N)=O)c(NCC(C)C)n2)c1
Result: 10 to 100 nM

Query: How about this compound: CC(=O)Nc1cccc(Nc2ncc(C(N)=O)c(NCC3CCNCC3)n2)c1
Result: 10 to 100 nM

Query: How about this compound: CC(=O)Nc1cccc(Nc2cc(N[C@H](CO)c3ccccc3)c(C(N)=O)cn2)c1
Result: 100 to 1000 nM

====

Study target: TYK2 (Homo sapiens, UniProt P29597)
Construct: 5 μl of catalytic domain recombinant Kinase enzyme+Tyr peptide substrate (Invitrogen, Calif.)
Sequence (P29597 897-1176 limits assumed): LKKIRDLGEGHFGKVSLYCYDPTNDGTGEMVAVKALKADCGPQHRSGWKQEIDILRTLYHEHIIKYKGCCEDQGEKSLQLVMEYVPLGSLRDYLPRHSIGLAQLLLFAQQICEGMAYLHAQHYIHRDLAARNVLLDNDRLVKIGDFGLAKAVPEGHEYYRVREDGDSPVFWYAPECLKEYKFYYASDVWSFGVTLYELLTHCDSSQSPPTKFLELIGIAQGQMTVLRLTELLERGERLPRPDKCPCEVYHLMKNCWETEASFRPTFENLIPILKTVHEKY
Measurement notes: Z'-LYTE kinase assay, TYK2 tyrosine phosphorylation activity
pIC50: −log10 of the molar value.
Consider the following compounds and their measured pIC50 readings.

The cases that follow already have their pIC50 on record.
>>> value_reported("NC(=O)c1cnc(Nc2cccc(NC(=O)N3CCCC3)c2)nc1NCc1cccc(F)c1 [Example 179]")
"7.00 to 8.00"
>>> value_reported("CC(=O)Nc1cc(Nc2ncc(C(N)=O)c(NCc3ccccc3)n2)ccc1F [Example 156]")
"8.00 to 9.00"
>>> value_reported("CN(C(=O)N1CCCC1)c1cccc(Nc2ncc(C(N)=O)c(NCC3CC3)n2)c1 [Example 127]")
"6.00 to 7.00"
>>> value_reported("NC(=O)c1cnc(Nc2ccc(Cl)c(NC(=O)N3CCCC3)c2)nc1NCc1ccccc1 [Example 130]")
"7.00 to 8.00"

Query: Request the reported pIC50 associated with COc1ccc(Nc2ncc(C(N)=O)c(NCc3ccccc3)n2)cc1N(C)C(=O)N1CCCC1 [Example 239]
Result: 7.00 to 8.00

Query: How about this compound: CC(=O)Nc1cccc(Nc2ncc(C(N)=O)c(Nc3cccc(-c4ncccn4)c3)n2)c1 [Example 199]
Result: 7.00 to 8.00

====

Consider the following compounds and their measured pIC50 readings.
Study target: JAK1 (Homo sapiens, UniProt P23458)
Construct: 5 μl of catalytic domain recombinant Kinase enzyme+Tyr peptide substrate (Invitrogen, Calif.)
Measurement notes: Z'-LYTE kinase assay, JAK1 tyrosine phosphorylation activity
Experimental setup: read-out: JAK 1 IC50
pIC50: −log10 of the molar value.

The cases that follow already have their pIC50 on record.
>>> value_reported("CC(=O)Nc1cccc(Nc2cc(NCc3ccc4c(c3)OCO4)c(C(N)=O)cn2)c1 [Example 334]")
"< 6.00"
>>> value_reported("CC(=O)Nc1cccc(Nc2ncc(C(N)=O)c(N[C@H](C)C(N)=O)n2)c1 [Example 91]")
"7.00 to 8.00"
>>> value_reported("C[C@@H](Nc1nc(Nc2cccc(N(C)C(=O)N3CCCC3)c2)ncc1C(N)=O)c1ccccc1 [Example 122]")
"6.00 to 7.00"
>>> value_reported("CC(=O)Nc1cccc(Nc2ncc(C(N)=O)c(N[C@H](C)C(C)C)n2)c1 [Example 252]")
"8.00 to 9.00"
>>> value_reported("COc1ccc(CNc2nc(Nc3cccc(NC(C)=O)c3)ncc2C(N)=O)cc1 [Example 68]")
"6.00 to 7.00"

Kindly consider the entry below.
Query: Lab note: need pIC50 for C[C@@H](Nc1nc(Nc2ccc(Cl)c(NC(=O)N3CCOCC3)c2)ncc1C(N)=O)c1ccccc1 [Example 183] on JAK1 (Homo sapiens, UniProt P23458), anyone have it?
Result: 6.00 to 7.00
